Read-out: Interferon-gamma inducible Protein 10 (IP10), CXCL10 (gene 3627)
Assay: BSK_KF3CT_IP10: BioMAP Diversity Plus: KF3CT Assay for Interferon-gamma inducible Protein 10 (IP10) Biomarker Activity (AID 2283068)
Settings: primary human keratinocytes with fibroblasts; actives raise or lower the signal
The source made the active and inactive calls. How the source made its calls: active means hit-call score of the fitted dose curve at least 0.9, where 1 is the maximum; inactive means score below 0.9.

{"columns": ["molecule", "AC50"],
 "data": [
  ["O=C=NC1CCC(CC2CCC(N=C=O)CC2)CC1 (centres undefined)", "inactive"],
  ["CC(C)(COC(=O)c1ccccc1)COC(=O)c1ccccc1", "inactive"],
  ["CC(C)c1ccc(C(C)C)cc1", "inactive"],
  ["Cc1ccc(O)c(C(C)(C)C)c1", "37.5 µM (active)"]
]}

====

Target: Cellular tumor antigen p53 (Homo sapiens)
Test: ATG_p53_CIS: Attagene CIS-FACTORIAL HepG2 Assay for human p53 Transcription Factor (AID 2282994)
Details: HepG2 p53 cis-element reporter, Attagene mRNA; actives raise or lower the signal
The source made the active and inactive calls. The calls were made as follows: active = hit-call score of the fitted dose curve at least 0.9, where 1 is the maximum; inactive = score below 0.9.
Valid outcomes are listed here; reply with one: YES for active, NO for inactive

{"columns": ["molecule", "group"],
 "data": [
  ["C[Si](O[Si](C)(C)C)O[Si](C)(C)C", "NO"],
  ["CCCc1ccccc1O", "NO"],
  ["O=C=NC1CCC(CC2CCC(N=C=O)CC2)CC1 (configuration not stated)", "NO"]
]}

QUERY: Give the logged outcome of this assay for the following molecule: `CC(C)[C@@H]1CC[C@@H](C)CC1=O`
RESULT: NO

QUERY: Give the logged outcome of this assay for the following molecule: `CC1(C)[C@@H]2CC[C@@]1(C)[C@H](O)C2`
RESULT: NO

QUERY: Give the logged outcome of this assay for the following molecule: `CCCCCCOC(=O)CC`
RESULT: NO

====

Read-out: Collagen I, COL1A1 (gene 1277)
Assay: BSK_MyoF_CollagenI: BioMAP Diversity Plus: MyoF Assay for Collagen I Biomarker Activity (AID 2284238)
Details: primary human lung fibroblasts
Activity calls are given as the source filed them. The calls were made as follows: active = hit-call score of the fitted dose curve at least 0.9, where 1 is the maximum; inactive = score below 0.9.
Valid outcomes are listed here; reply with one: yes = active, no = inactive

{"columns": ["molecule", "group"],
 "data": [
  ["Cc1ccc2n[nH]nc2c1", "no"],
  ["CC(=O)Nc1ccccc1O", "no"],
  ["CCCCCCCCC=O", "no"]
]}

QUERY: Give the logged outcome of this assay for the following molecule: `CCCCCCCCCC=O`
RESULT: no

QUERY: Give the logged outcome of this assay for the following molecule: `CNC[C@H](O)c1cccc(O)c1`
RESULT: no

QUERY: Give the logged outcome of this assay for the following molecule: `c1ccc2sc(SN(C3CCCCC3)C3CCCCC3)nc2c1`
RESULT: no

QUERY: Give the logged outcome of this assay for the following molecule: `CC(=O)O[C@]1(C(C)=O)CC[C@H]2[C@@H]3C[C@H](C)C4=CC(=O)CC[C@]4(C)[C@H]3CC[C@@]21C`
RESULT: no

QUERY: Give the logged outcome of this assay for the following molecule: CN(CCOc1ccc(CC2SC(=O)NC2=O)cc1)c1ccccn1 (stereo not drawn)
RESULT: yes

====

Read-out: serum amyloid A (SAA), SAA1 (gene 6288)
Test: BSK_CASM3C_SAA: BioMAP Diversity Plus: CASM3C Assay for serum amyloid A (SAA) Biomarker Activity (AID 2283049);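 further: SAA protein level quantified by ELISA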
Conditions: primary human coronary artery smooth muscle cells; actives raise or lower the signal
Activity calls are given as the source filed them. How the source made its calls: active means hit-call score of the fitted dose curve at least 0.9, where 1 is the maximum; inactive means score below 0.9.
Valid outcomes are listed here; reply with one: 1 for active, 0 for inactive

These recorded examples may help you get a feel for the data.
{"columns": ["compound", "group"],
 "data": [
  ["CC(=O)[C@H]1CC[C@H]2[C@@H]3CC=C4C[C@@H](O)CC[C@]4(C)[C@H]3CC[C@]12C", 0],
  ["C=C(C)C(=O)O[C@H]1C[C@@H]2CC[C@@]1(C)C2(C)C", 0],
  ["O=C(O)c1cn(C2CC2)c2cc(N3CCNCC3)c(F)cc2c1=O", 0],
  ["CNC[C@H](O)c1cccc(O)c1", 0],
  ["Cc1ccc(Nc2ccc(O)c3c2C(=O)c2ccccc2C3=O)cc1", 0]
]}

QUERY: Give the logged outcome of this assay for the following compound: `C[C@H]1C[C@@H]2[C@H]([C@@H](O)C[C@@]3(C)[C@H]2CC[C@]3(O)C(=O)CO)[C@@]2(C)C=CC(=O)C=C12`
RESULT: 1

QUERY: Give the logged outcome of this assay for the following compound: `CCC(=O)OCc1ccccc1`
RESULT: 0

QUERY: Give the logged outcome of this assay for the following compound: `CC(=O)O[C@]1(C(C)=O)CC[C@H]2[C@@H]3C[C@H](C)C4=CC(=O)CC[C@]4(C)[C@H]3CC[C@@]21C`
RESULT: 1

QUERY: Give the logged outcome of this assay for the following compound: `CCn1c2ccccc2c2cc(N)ccc21`
RESULT: 0

QUERY: Give the logged outcome of this assay for the following compound: CCCCC(CC)COC(=O)/C=C\C(=O)OCC(CC)CCCC (configuration not stated)
RESULT: 0

QUERY: Give the logged outcome of this assay for the following compound: CC1COc2ccccc2N1C(=O)C(Cl)Cl (configuration not stated)
RESULT: 0

QUERY: Give the logged outcome of this assay for the following compound: `NCCNCCN`
RESULT: 0

QUERY: Give the logged outcome of this assay for the following compound: `CC[Si](OC(C)=O)(OC(C)=O)OC(C)=O`
RESULT: 0

QUERY: Give the logged outcome of this assay for the following compound: CN(CCOc1ccc(CC2SC(=O)NC2=O)cc1)c1ccccn1 (configuration not stated)
RESULT: 0

====

Assay: ATG_DR4_LXR_CIS: Attagene CIS-FACTORIAL HepG2 Assay for human Liver X Receptor (LXR), DR4 submotif (AID 2282929)
Conditions: HepG2 Attagene DR4 cis-reporter, mRNA transcription; actives raise or lower the signal
Activity calls are given as the source filed them. Rule for the calls: active = hit-call score of the fitted dose curve at least 0.9, where 1 is the maximum; inactive = score below 0.9.
Valid outcomes are listed here; reply with one: Y (active), N (inactive)

These recorded examples may help you get a feel for the data.
{"columns": ["compound", "group"],
 "data": [
  ["O=S(=O)(O)c1cccc2c(S(=O)(=O)O)cccc12", "N"],
  ["C=O", "N"],
  ["O=C1O[C@@H]2[C@@H](O)[C@H](O)O[C@@H]2[C@H]1O", "N"],
  ["CCCCCCCCCCCCCCCC(=O)OC[C@H](O)[C@H]1OC(=O)C(O)=C1O", "Y"]
]}

QUERY: Give the logged outcome of this assay for the following compound: `CCOC(=O)c1ccccc1OC`
RESULT: N

QUERY: Give the logged outcome of this assay for the following compound: `CC(C)c1cccc(O)c1`
RESULT: N

QUERY: Give the logged outcome of this assay for the following compound: `C=C(C)C(=O)O`
RESULT: N

QUERY: Give the logged outcome of this assay for the following compound: CC(C=O)Cc1ccc(C(C)C)cc1 (stereo not given)
RESULT: N

QUERY: Give the logged outcome of this assay for the following compound: CCCOCC(C)O (stereo not given)
RESULT: N

QUERY: Give the logged outcome of this assay for the following compound: `C=C(C)C(=O)NCCCN(C)C`
RESULT: N

QUERY: Give the logged outcome of this assay for the following compound: CC1=CCC(O)(C(C)C)CC1 (stereo not given)
RESULT: N

QUERY: Give the logged outcome of this assay for the following compound: CN(CCOc1ccc(CC2SC(=O)NC2=O)cc1)c1ccccn1 (stereo not given)
RESULT: N

QUERY: Give the logged outcome of this assay for the following compound: `CCCC(=O)C(C)=O`
RESULT: N

QUERY: Give the logged outcome of this assay for the following compound: `CCCC(=O)c1cc(O)c(O)cc1O`
RESULT: N

QUERY: Give the logged outcome of this assay for the following compound: `Cc1cccc(C)c1C`
RESULT: N

====

Read-out: Interleukin-8 (IL8), CXCL8 (gene 3576)
Assay: BSK_LPS_IL8: BioMAP Diversity Plus: LPS Assay for Interleukin-8 (IL8) Biomarker Activity (AID 2283078)
Details: primary human HUVEC with PBMC; actives raise or lower the signal
The source made the active and inactive calls. Rule for the calls: active = hit-call score of the fitted dose curve at least 0.9, where 1 is the maximum; inactive = score below 0.9.
Valid outcomes are listed here; reply with one: YES for active, NO for inactive

QUERY: Give the logged outcome of this assay for the following molecule: `O=C1OC2(c3cc(Br)c(O)c(Br)c3Oc3c2cc(Br)c(O)c3Br)c2c(Cl)c(Cl)c(Cl)c(Cl)c21`
RESULT: YES

QUERY: Give the logged outcome of this assay for the following molecule: `CC(C)Oc1ccccc1O`
RESULT: NO

QUERY: Give the logged outcome of this assay for the following molecule: CC1CCC(C(C)CS)CC1S (stereo not drawn)
RESULT: NO

QUERY: Give the logged outcome of this assay for the following molecule: `O=C(O)C[C@H](O)C[C@H](O)/C=C/c1c(C2CC2)nc2ccccc2c1-c1ccc(F)cc1`
RESULT: YES

QUERY: Give the logged outcome of this assay for the following molecule: `CC(=O)O[C@]1(C(C)=O)CC[C@H]2[C@@H]3C[C@H](C)C4=CC(=O)CC[C@]4(C)[C@H]3CC[C@@]21C`
RESULT: NO

QUERY: Give the logged outcome of this assay for the following molecule: `C#C[C@]1(O)CC[C@H]2[C@@H]3CCC4=Cc5oncc5C[C@]4(C)[C@H]3CC[C@@]21C`
RESULT: NO

QUERY: Give the logged outcome of this assay for the following molecule: `Nc1cc([N+](=O)[O-])ccc1Cl`
RESULT: NO

QUERY: Give the logged outcome of this assay for the following molecule: CC1COc2ccccc2N1C(=O)C(Cl)Cl (stereo not drawn)
RESULT: NO

QUERY: Give the logged outcome of this assay for the following molecule: `O=C1CCCCCCCCCCCCCCO1`
RESULT: NO

QUERY: Give the logged outcome of this assay for the following molecule: `CCCCC/C=C/C=C/C=O`
RESULT: YES

QUERY: Give the logged outcome of this assay for the following molecule: BrC1CCC(Br)C(Br)CCC(Br)C(Br)CCC1Br (stereo not drawn)
RESULT: NO

QUERY: Give the logged outcome of this assay for the following molecule: `CCCCCCCCC=O`
RESULT: NO

QUERY: Give the logged outcome of this assay for the following molecule: `CCn1c2ccccc2c2cc(N)ccc21`
RESULT: NO

QUERY: Give the logged outcome of this assay for the following molecule: `CC(=O)Nc1ccccc1O`
RESULT: NO

QUERY: Give the logged outcome of this assay for the following molecule: `O=P(c1ccccc1)(c1ccccc1)c1ccccc1`
RESULT: NO

QUERY: Give the logged outcome of this assay for the following molecule: `CC(C)(COC(=O)c1ccccc1)COC(=O)c1ccccc1`
RESULT: NO

QUERY: Give the logged outcome of this assay for the following molecule: `CCc1c(C)cc(N)c(CC)c1N`
RESULT: NO

QUERY: Give the logged outcome of this assay for the following molecule: `CCCCCCCCCC=O`
RESULT: NO

QUERY: Give the logged outcome of this assay for the following molecule: CCCCC(CC)COCCC#N (stereo not drawn)
RESULT: NO

QUERY: Give the logged outcome of this assay for the following molecule: CCCCCCCCCCCCCCCCCC(=O)OCC(CC)CCCC (stereo not drawn)
RESULT: NO

QUERY: Give the logged outcome of this assay for the following molecule: `CNC[C@H](O)c1cccc(O)c1`
RESULT: NO

QUERY: Give the logged outcome of this assay for the following molecule: `O=C(O)c1cn(C2CC2)c2cc(N3CCNCC3)c(F)cc2c1=O`
RESULT: NO

QUERY: Give the logged outcome of this assay for the following molecule: `C=C[Si](OCC)(OCC)OCC`
RESULT: NO

QUERY: Give the logged outcome of this assay for the following molecule: `Cc1ccc(O)c(C(C)(C)C)c1`
RESULT: YES
